Organism: Rattus norvegicus
Assay: DrugMatrix - Regimen: Daily Repeat
Type: toxicity, organism-based, Sprague-Dawley
Set-up: regimen Daily Repeat, gender Male, age 6-8 weeks
Settings: in vivo, ip, 0 mg/kg, […], tissue Blood, route intraperitoneal, dose level Control, time 28 day, vehicle 100 % SALINE
Outcome measure: ABSOLUTE BASOPHIL
Express your answer as a number followed by its unit.

Problem: Give its ABSOLUTE BASOPHIL value. Item: GENTAMICIN
Solution: 91 cells/µL

* * *

Species: Rattus norvegicus
Assay: DrugMatrix - Regimen: Daily Repeat
Assay type: toxicity, organism-based, Sprague-Dawley
Design: regimen Daily Repeat, gender Male, age 6-8 weeks
Settings: in vivo, po, 1500 mg/kg, 120 h, tissue Blood, route oral GAVAGE, dose level High, time 5 day, vehicle .5 % CMC
Outcome measure: ABSOLUTE LYMPHOCYTE (CELLS/uL)
Your answer is read as CELLS/uL, so omit the unit and give the number.

Solved entries (count: 4):
| Compound | ABSOLUTE LYMPHOCYTE / CELLS/uL |
| --- | --- |
| CN(C)[C@@H]1C(O)=C(C(N)=O)C(=O)[C@@]2(O)C(O)=C3C(=O)c4c(O)ccc(Cl)c4[C@@](C)(O)[C@H]3C[C@@H]12 | 18100 |
| CC(C)=CCC/C(C)=C/CO | 19247.33 |
| O=c1cnn([C@@H]2O[C@H](CO)[C@@H](O)[C@H]2O)c(=O)[nH]1 | 13100 |
| COC(=O)Nc1nc2ccc([S+]([O-])c3ccccc3)cc2[nH]1 (stereo not given) | 9784.67 |

Here is another compound to look at.
Problem: Give its ABSOLUTE LYMPHOCYTE value. Item: CC(C)Oc1ccc2c(=O)c(-c3ccccc3)coc2c1
Solution: 12219.33
